Listed molecules paired with reported pIC50
- system.tested: PIN1-NRF2 interaction (Homo sapiens, UniProt Q13526, M1N)
- Construct: host or cells: E. coli BL21 (DE3)
- Sequence (Q13526 whole entry M1N): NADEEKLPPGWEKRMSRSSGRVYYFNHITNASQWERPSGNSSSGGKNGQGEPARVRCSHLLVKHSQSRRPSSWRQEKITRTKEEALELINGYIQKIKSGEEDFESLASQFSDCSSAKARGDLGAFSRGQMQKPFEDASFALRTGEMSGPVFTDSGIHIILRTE
- test.method.notes: FP competition / ligand displacement assay: competitor titrated to fixed GST-PIN1 and fluorescently labelled NRF2 peptide
- Format: binding
- measurement.context: GST-PIN1 1 µM; labelled NRF2_571-584^pSer577 10 nM; read-out: IC50, inhibition of NRF2_571-584^pSer577 binding to PIN1
Hey, just a heads up that pIC50 is the negative log base 10 of the concentration in molar.

O=C1C=CC(=O)c2c(O)cccc21 :: 4.52

Continue with the molecule presented below.
Lab request: please report pIC50 under test system PIN1-NRF2 interaction (Homo sapiens, UniProt Q13526, M1N) for CC(C)(C)c1ccc(S(=O)(=O)/N=C2\C=C(SCC(=O)O)C(=O)c3ccccc32)cc1
5.85
